assay: Transport across Caco-2 cell monolayer; type: in vitro ADME; details: human, Caco-2, with PSC833 (concentration not stated); 5 μM, + PSC833; read-out: ER
Readout Name: efflux ratio at 2 h, 5 μM
Just the number, please, no unit after it.

Enquiry: Record request: efflux ratio at 2 h, 5 μM value, item C[C@H]1O[C@@H](O[C@H]2[C@@H](O)C[C@H](O[C@H]3[C@@H](O)C[C@H](O[C@H]4CC[C@@]5(C)[C@H](CC[C@@H]6[C@@H]5C[C@@H](O)[C@]5(C)[C@@H](C7=CC(=O)OC7)CC[C@]65O)C4)O[C@@H]3C)O[C@@H]2C)C[C@H](O)[C@@H]1O [Digoxin, digoxin, reference compound]
Return: 1.63

----------
Assay: Pharmacokinetics of four lignans in rats after oral SC alcoholic extract
Assay type: in vivo, rat
Conditions: Sprague-Dawley, rat, plasma, po, 1.5 g/kg/day, CCl4-intoxicated rats, oral SC alcoholic extract 1.5 g/kg/day for 4 days, n = 5
Method: The pharmacokinetic profiles of four lignans were studied in ALI rat after multiple oral administrations of SC alcoholic extract at dose of 1.5 g/kg/day. […] Plasma concentrations of the four lignans were quantified using HPLC-MS analysis developed according to the reported method (Wang et al., [2008]). Data fitting and pharmacokinetic parameter calculations were carried out using the Winnolin software. […] Parameters, such as AUC and MRT, were calculated using statistical moment method.
Readout Name: half-life (h)
API: value field is a number in h; no unit string.

Enquiry: Record request: half-life value, item COc1cc2c(c(OC)c1OC)-c1c(cc3c(c1OC)OCO3)C[C@H](C)[C@H](C)C2 [γ-Schisandrin, γ-schisandrin]
Return: 14.5

Enquiry: Record request: half-life value, item COc1cc2c(c(OC)c1OC)-c1c(cc(OC)c(OC)c1OC)C[C@H](C)[C@@H](C)C2 [Deoxyshisandrin, deoxyshisandrin]
Return: 13.1

Enquiry: Record request: half-life value, item COc1cc2c(c(OC)c1OC)-c1c(cc(OC)c(OC)c1OC)C[C@](C)(O)[C@@H](C)C2 [Schisandrin, schisandrin]
Return: 7.74

----------
Give measured CL/F for each item. Keep answers brief.
experiment: Pharmacokinetics of four lignans in rats after oral SC alcoholic extract; format: in vivo, rat; details: Sprague-Dawley, rat, plasma, po, 1.5 g/kg/day, CCl4-intoxicated rats, oral SC alcoholic extract 1.5 g/kg/day for 4 days, plasma, n = 5; read-out: CLz/F (converted)
API: value field is a number in mL/min/kg; no unit string.

Enquiry: Record request: CL/F value, item `COc1cc2c(c(OC)c1OC)-c1c(cc3c(c1OC)OCO3)C[C@H](C)[C@H](C)C2`
Return: 25.2

Enquiry: Record request: CL/F value, item `COc1cc2c(c(OC)c1OC)-c1c(cc(OC)c(OC)c1OC)C[C@H](C)[C@@H](C)C2`
Return: 35.5

Enquiry: Record request: CL/F value, item `COc1cc2c(c(OC)c1OC)-c1c(cc(OC)c(OC)c1OC)C[C@](C)(O)[C@@H](C)C2`
Return: 6.61

----------
Test: Pharmacokinetics of four lignans in rats after oral SC alcoholic extract
Type: in vivo, rat
Conditions: Sprague-Dawley, rat, plasma, po, 1.5 g/kg/day, CCl4-intoxicated rats, oral SC alcoholic extract 1.5 g/kg/day for 4 days, n = 5
Method: The pharmacokinetic profiles of four lignans were studied in ALI rat after multiple oral administrations of SC alcoholic extract at dose of 1.5 g/kg/day. […] Plasma concentrations of the four lignans were quantified using HPLC-MS analysis developed according to the reported method (Wang et al., [2008]). Data fitting and pharmacokinetic parameter calculations were carried out using the Winnolin software. […] Parameters, such as AUC and MRT, were calculated using statistical moment method.
Readout Name: AUC(0-t) (ng·h/mL)
API: value field is a number in ng·h/mL; no unit string.

Enquiry: Record request: AUC(0-t) value, item `COc1cc2c(c(OC)c1OC)-c1c(cc(OC)c(OC)c1OC)C[C@](C)(O)[C@@H](C)C2`
Return: 74700

Enquiry: Record request: AUC(0-t) value, item `COc1cc2c(c(OC)c1OC)-c1c(cc3c(c1OC)OCO3)C[C@H](C)[C@H](C)C2`
Return: 11600

Enquiry: Record request: AUC(0-t) value, item `COc1cc2c(c(OC)c1OC)-c1c(cc(OC)c(OC)c1OC)C[C@H](C)[C@@H](C)C2`
Return: 16400

----------
Give measured Papp A→B at 2 h, 5 μM for each item. Keep answers brief.
assay: Transport across Caco-2 cell monolayer; format: in vitro ADME; details: human, Caco-2; 5 μM

Enquiry: Record request: Papp A→B at 2 h, 5 μM value, item CC(C)NCC(O)COc1cccc2ccccc12 (centres unmarked) [Propranolol, propranolol, reference compound]
Return: 32.9 ×10⁻⁶ cm/s

Enquiry: Record request: Papp A→B at 2 h, 5 μM value, item COc1cc2c(c(OC)c1OC)-c1c(cc3c(c1OC)OCO3)C[C@H](C)[C@H](C)C2 [γ-Schisandrin, γ-schisandrin]
Return: 1.17 ×10⁻⁶ cm/s

Enquiry: Record request: Papp A→B at 2 h, 5 μM value, item COc1cc2c(c(OC)c1OC)-c1c(cc(OC)c(OC)c1OC)C[C@](C)(O)[C@@H](C)C2 [Schisandrin, schisandrin]
Return: 2.15 ×10⁻⁶ cm/s

Enquiry: Record request: Papp A→B at 2 h, 5 μM value, item C[C@H]1O[C@@H](O[C@H]2[C@@H](O)C[C@H](O[C@H]3[C@@H](O)C[C@H](O[C@H]4CC[C@@]5(C)[C@H](CC[C@@H]6[C@@H]5C[C@@H](O)[C@]5(C)[C@@H](C7=CC(=O)OC7)CC[C@]65O)C4)O[C@@H]3C)O[C@@H]2C)C[C@H](O)[C@@H]1O [Digoxin, digoxin, reference compound]
Return: 3.29 ×10⁻⁶ cm/s

Enquiry: Record request: Papp A→B at 2 h, 5 μM value, item COc1cc2c(c(OC)c1OC)-c1c(cc(OC)c(OC)c1OC)C[C@H](C)[C@@H](C)C2 [Deoxyshisandrin, deoxyshisandrin]
Return: 1.17 ×10⁻⁶ cm/s

----------
assay: Transport across Caco-2 cell monolayer; assay type: in vitro ADME; conditions: human, Caco-2; 50 μM, ER = Papp (BL → AP)/Papp(AP → BL)
Give measured efflux ratio at 2 h, 50 μM for each item. Keep answers brief.
Just the number, please, no unit after it.

Enquiry: Record request: efflux ratio at 2 h, 50 μM value, item `COc1cc2c(c(OC)c1OC)-c1c(cc(OC)c(OC)c1OC)C[C@](C)(O)[C@@H](C)C2`
Return: 1.1

Enquiry: Record request: efflux ratio at 2 h, 50 μM value, item `COc1cc2c(c(OC)c1OC)-c1c(cc(OC)c(OC)c1OC)C[C@H](C)[C@@H](C)C2`
Return: 1.38

Enquiry: Record request: efflux ratio at 2 h, 50 μM value, item `COc1cc2c(c(OC)c1OC)-c1c(cc3c(c1OC)OCO3)C[C@H](C)[C@H](C)C2`
Return: 1.08

----------
Give measured CL/F for each item. Keep answers brief.
assay: Pharmacokinetics of four lignans in rats after oral SC alcoholic extract; type: in vivo, rat; details: Sprague-Dawley, rat, plasma, po, 1.5 g/kg/day, Control (normal) rats, oral SC alcoholic extract 1.5 g/kg/day for 4 days, plasma, n = 5; read-out: CLz/F (converted)
API: value field is a number in L/h/kg; no unit string.

Enquiry: Record request: CL/F value, item `COc1cc2c(c(OC)c1OC)-c1c(cc(OC)c(OC)c1OC)C[C@H](C)[C@@H](C)C2`
Return: 4.8

Enquiry: Record request: CL/F value, item `COc1cc2c(c(OC)c1OC)-c1c(cc(OC)c(OC)c1OC)C[C@](C)(O)[C@@H](C)C2`
Return: 1.46

Enquiry: Record request: CL/F value, item `COc1cc2c(c(OC)c1OC)-c1c(cc3c(c1OC)OCO3)C[C@H](C)[C@H](C)C2`
Return: 3.26

----------
test: Transport across Caco-2 cell monolayer; type: in vitro ADME; conditions: human, Caco-2, with PSC833 (concentration not stated); 5 μM, + PSC833
Readout Name: Papp A→B at 2 h, 5 μM (×10⁻⁶ cm/s)
API: value field is a number in ×10⁻⁶ cm/s; no unit string.

Enquiry: Record request: Papp A→B at 2 h, 5 μM value, item C[C@H]1O[C@@H](O[C@H]2[C@@H](O)C[C@H](O[C@H]3[C@@H](O)C[C@H](O[C@H]4CC[C@@]5(C)[C@H](CC[C@@H]6[C@@H]5C[C@@H](O)[C@]5(C)[C@@H](C7=CC(=O)OC7)CC[C@]65O)C4)O[C@@H]3C)O[C@@H]2C)C[C@H](O)[C@@H]1O [Digoxin, digoxin, reference compound]
Return: 1.46

----------
assay: Pharmacokinetics of four lignans in rats after oral SC alcoholic extract; assay type: in vivo, rat; conditions: Sprague-Dawley, rat, plasma, po, 1.5 g/kg/day, CCl4-intoxicated rats, oral SC alcoholic extract 1.5 g/kg/day for 4 days, plasma, n = 5; read-out: Tmax
Give measured Tmax for each item. Keep answers brief.
API: value field is a number in h; no unit string.

Enquiry: Record request: Tmax value, item `COc1cc2c(c(OC)c1OC)-c1c(cc(OC)c(OC)c1OC)C[C@](C)(O)[C@@H](C)C2`
Return: 6.2

Enquiry: Record request: Tmax value, item `COc1cc2c(c(OC)c1OC)-c1c(cc3c(c1OC)OCO3)C[C@H](C)[C@H](C)C2`
Return: 4.2

Enquiry: Record request: Tmax value, item `COc1cc2c(c(OC)c1OC)-c1c(cc(OC)c(OC)c1OC)C[C@H](C)[C@@H](C)C2`
Return: 5.8

Provenance of the data: paper PMC5861220
